biological target: Tyrosine-protein kinase Fyn (Homo sapiens) (UniProt P06241); settings: at 0.1 µM
Sequence (P06241 2-537 limits assumed): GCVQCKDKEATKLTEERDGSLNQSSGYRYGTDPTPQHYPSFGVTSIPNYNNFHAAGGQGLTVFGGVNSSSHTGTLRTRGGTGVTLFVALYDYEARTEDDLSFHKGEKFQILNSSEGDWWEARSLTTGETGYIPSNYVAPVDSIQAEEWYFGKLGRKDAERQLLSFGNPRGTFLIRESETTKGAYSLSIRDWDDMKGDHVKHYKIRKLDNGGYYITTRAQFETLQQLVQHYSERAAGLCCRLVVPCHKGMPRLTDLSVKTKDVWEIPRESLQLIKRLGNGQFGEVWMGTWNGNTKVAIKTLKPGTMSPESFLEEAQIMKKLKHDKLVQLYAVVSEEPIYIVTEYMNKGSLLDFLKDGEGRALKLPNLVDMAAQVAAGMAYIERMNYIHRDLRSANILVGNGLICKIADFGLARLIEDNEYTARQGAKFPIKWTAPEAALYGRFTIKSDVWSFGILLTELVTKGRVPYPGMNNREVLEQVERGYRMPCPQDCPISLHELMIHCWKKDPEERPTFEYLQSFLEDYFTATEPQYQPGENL
Description: GSK_PKIS: FYN mean inhibition at 0.1 uM [Nanosyn]
Readings of inhibition for the listed molecules
RECORDED_METRIC: inhibition (%)

1) CCn1c(-c2nonc2N)nc2c(C#CC(C)(C)O)ncc(OCC3CCNCC3)c21; -4.47
2) COc1cc(C=NNc2ncnc3c2cnn3Cc2ccccc2)ccc1O; 6.12
3) COc1cc2c(cc1Nc1nc(Nc3ccsc3C(N)=O)c3cc[nH]c3n1)N(C(=O)CN(C)C)CCC2; 2.02
4) Cc1cc(-c2ccco2)cc(C)c1/C=C/c1cncc(-c2nn[nH]n2)c1; 1.3
5) Fc1ccc(-c2ncn(C3CCNCC3)c2-c2ccnc(Oc3ccccc3)n2)cc1; -2.88
6) COc1cccc(COc2cc(-n3cnc4ccccc43)sc2C(N)=O)c1; 0
7) NS(=O)(=O)c1ccc(N/C=C2\C(=O)Nc3ccc4ncsc4c32)cc1; 2.85
8) CCn1c(-c2nonc2N)nc2c(C#CC(C)(C)O)ncc(OC[C@@H]3CCCN3)c21; 0.24
9) CCn1c(-c2nonc2N)nc2c(C#CC(C)(C)O)nc(O[C@@H](CN)c3ccccc3)cc21; 3.24
10) CCn1c(-c2nonc2N)nc2c(C#CCN)ncc(OCCCN)c21; 0.54

----------
molecular target: Tyrosine-protein kinase Tec (Homo sapiens); conditions: at 1 µM;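 note: each value is the mean of the inhibition measurements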
Readings of inhibition for the listed compounds
RECORDED_METRIC: inhibition (%)

1) NS(=O)(=O)c1ccc(N/C=C2\C(=O)Nc3ccc4ncsc4c32)cc1; 10.6
2) CCn1c(-c2nonc2N)nc2c(C#CC(C)(C)O)ncc(OC[C@@H]3CCCN3)c21; 1.67
3) CCn1c(-c2nonc2N)nc2c(C#CCN)ncc(OCCCN)c21; -1.5
4) COc1cc2c(cc1Nc1nc(Nc3ccsc3C(N)=O)c3cc[nH]c3n1)N(C(=O)CN(C)C)CCC2; 4.36
5) NS(=O)(=O)c1ccc(-c2ccc3c(NC(=O)C4CC4)n[nH]c3c2)cc1; 10.3
6) NC(=O)c1sc(-n2cnc3cc(C(F)(F)F)ccc32)cc1OCc1ccccc1Br; 3.28
7) CCn1c(-c2nonc2N)nc2c(C#CC(C)(C)O)ncc(OCC3CCNCC3)c21; 0.43
8) Nc1nonc1-c1nc2cnccc2n1C1CCCCC1; 1.22
9) COc1cccc(COc2cc(-n3cnc4ccccc43)sc2C(N)=O)c1; 0.59
10) CCn1c(-c2nonc2N)nc2c(C#CC(C)(C)O)nc(O[C@@H](CN)c3ccccc3)cc21; 5.82

----------
Readings of inhibition for the listed molecules
biological target: Cyclin-dependent kinase 2 (Homo sapiens); conditions: at 1 µM;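 note: mean inhibition measured against the CDK2/cyclin E complex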
RECORDED_METRIC: inhibition

1. COc1cc(C=NNc2ncnc3c2cnn3Cc2ccccc2)ccc1O; 6.08%
2. NC(=O)c1sc(-n2cnc3cc(C(F)(F)F)ccc32)cc1OCc1ccccc1Br; 3.19%
3. COc1cc2c(cc1Nc1nc(Nc3ccsc3C(N)=O)c3cc[nH]c3n1)N(C(=O)CN(C)C)CCC2; -1.41%
4. Nc1nonc1-c1nc2cnccc2n1C1CCCCC1; 41.5%
5. COc1cccc(-n2ncc3c(N/N=C/c4ccncc4)ncnc32)c1; 65.2%
6. NS(=O)(=O)c1ccc(N/C=C2\C(=O)Nc3ccc4ncsc4c32)cc1; 75%

----------
Readings of inhibition for the listed compounds
target: PAS domain-containing serine/threonine-protein kinase (Homo sapiens); conditions: at 1 µM;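 note: reported value is the mean percent inhibition of PASK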
RECORDED_METRIC: inhibition (%)

1. COc1cc2c(cc1Nc1nc(Nc3ccsc3C(N)=O)c3cc[nH]c3n1)N(C(=O)CN(C)C)CCC2; 1.03
2. CCn1c(-c2nonc2N)nc2c(C#CC(C)(C)O)nc(O[C@@H](CN)c3ccccc3)cc21; 15.9
3. NS(=O)(=O)c1ccc(N/C=C2\C(=O)Nc3ccc4ncsc4c32)cc1; 0.4
4. Fc1ccc(-c2ncn(C3CCNCC3)c2-c2ccnc(Oc3ccccc3)n2)cc1; -1
5. CCn1c(-c2nonc2N)nc2c(C#CCN)ncc(OCCCN)c21; 16.9
6. NS(=O)(=O)c1ccc(-c2ccc3c(NC(=O)C4CC4)n[nH]c3c2)cc1; -1.27
7. CCn1c(-c2nonc2N)nc2c(C#CC(C)(C)O)ncc(OCC3CCNCC3)c21; 12.8
8. Cc1cc(-c2ccco2)cc(C)c1/C=C/c1cncc(-c2nn[nH]n2)c1; 1.25
9. NC(=O)c1sc(-n2cnc3cc(C(F)(F)F)ccc32)cc1OCc1ccccc1Br; 0.96
10. COc1cccc(-n2ncc3c(N/N=C/c4ccncc4)ncnc32)c1; 0.25
